# Experimental Details: clinical
# Test Context: human, in vivo
Reported Property: concentration at 7 days

Recorded concentration at 7 days (molecule "c1cc(CN2CCCNCCNCCCNCC2)ccc1CN1CCCNCCNCCCNCC1" ): ≥ 100 ng/mL

---

# Experimental Details: in vivo
# Test Context: human
Reported Property: MTD

Recorded MTD (molecule "c1cc(CN2CCCNCCNCCCNCC2)ccc1CN1CCCNCCNCCCNCC1" ): ~1.8 mg/kg

All values here come from patent US20180344690A1.
